Data provenance: patent US20260193326A1

Target: T1, AAV5
T1 construct: also called adeno-associated virus serotype 5
Assay: SPR, AAV on CM5 chip;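 further: surface plasmon resonance with AAV amine-coupled to the chip as ligand, nanobodies injected as analyte over a concentration series, rate constants and affinity fitted from binding curves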
Label Condition met when kon is strictly below 70000 M⁻¹ s⁻¹; at or above that, label Condition not met.

Quick check: kon of A4-018 (VHH) VHH: VQLQESGGGLVQAGGSLRLSCAASGSRFSINTMGWYRQAPGKQREFVATVTRGGNTNYAESVKGRFTISRDNAKNTVYLQMNSLRPEDTAVYYCHVDEVRDSSWTTSNIWGQGTQVTVSS under 70000 M⁻¹ s⁻¹?
Condition not met

In the record for A4-002 (VHH) VHH: VQLQESGGGLVQPGGSLRLSCAASGRSFSINTMGWYRQAPGKQRELVAAVTRGGSTNYAGSVKGRFTISRDNAKNTVYLQMNSLRPEDTAVYYCHIDEVRQSSWTTSNIWGQGTQVTVSS , is kon less than 70000 M⁻¹ s⁻¹?
Condition met

Strictly below 70000 M⁻¹ s⁻¹: is that where kon of A4-015 (VHH) VHH: VQLQESGGGLVQPGGSLRLSCAASGSIFSINLMGWYRQAAGKQRELVATITPGGNTNYAGSVKGRFTISRDNAKNTVYLQMNSLRPEDTAVYYCHVDEVRQSSWTTSNLWGQGTQVTVSS sits?
Condition not met
